Reference source: PubChem BioAssay AID1852

The entries below come with measured inhibition values attached.
Test: TNF-a-driven NF-kB reporter inhibitors, primary screen, selectivity assay for NOD1/NOD2 signaling inhibitor project, cell-based, HEK293T NF-kB-Luc, luminescence (AID 1852)
Conditions: TNF-a induced, 14 h, at 4 µM, active compounds read high
Screen size: about 2,500 compounds; about 1,100 (44%) were called active. So high a share suggests a set chosen from earlier hits. The list shows a part of the results.
Form entry: value (%) — number only.

// known answers, use as guide
Short answer for Cc1cc(C(=O)CCl)c(C)n1-c1cccc(S(=O)(=O)N2CCOCC2)c1 : inhibition was 52.4

Short answer for CCN(CC)S(=O)(=O)c1ccc(N2CCOCC2)c(NC(=O)c2cc([N+](=O)[O-])ccc2Cl)c1 : inhibition was -28.1

Short answer for Cn1nccc1C(=O)NC1CCCc2c1cnn2-c1ccc(F)cc1F (stereo not given) : inhibition was 39.9

Short answer for O=C(Nc1ccc(S(=O)(=O)N2CCCC2)cc1)c1ccc(Br)o1 : inhibition was 6

Short answer for O=C(Nc1ccc(S(=O)(=O)N2CCOCC2)cc1)c1ccc(CN2CCc3ccccc3C2)cc1 : inhibition was 65.5

***
Short answer for Cc1ncoc1C(=O)NC1CCCc2c1cnn2-c1ccc(C(C)(C)C)cc1 (stereo not given) : inhibition was 74.7

Short answer for O=S(=O)(Nc1nc2ccccc2[nH]1)c1ccc(Cl)cc1 : inhibition was -4.8

Short answer for CCN(CC)c1ccc(S(=O)(=O)N2CCOCC2)cc1NC(=O)CN1CCc2ccccc2C1 : inhibition was 21.6

Short answer for COc1ccc(C(=O)NC2CCCc3c2cnn3-c2ccccc2F)o1 (stereo not given) : inhibition was -21.5

Short answer for CCC(C)Cn1c(O)cc2nn(-c3nc4ccccc4s3)c(=O)c-2c1C (stereo not given) : inhibition was 77.4

====

Assay: TNF-a-driven NF-kB reporter inhibitors, primary screen, selectivity assay for NOD1/NOD2 signaling inhibitor project, cell-based, HEK293T NF-kB-Luc, luminescence (AID 1852)
Details: TNF-a induced, 14 h, at 4 µM, active compounds read high
About 1,100 (44%) of roughly 2,500 compounds were called active. The set was probably picked from earlier hits. This is one part of the list.
Label scheme for inhibition: lower than 40% is n, 40% and above is y.

Use these answered entries as a reference point.
Decide: is the reported value of inhibition for C/C(Cl)=C\Cn1c(O)c(N=NC(N)=S)c2ccccc21 equal to or greater than 40%?
n

Decide: is the reported value of inhibition for Cc1ccc(S(=O)(=O)N2C(=O)/C(=C3\SC(=S)NC3=O)c3ccccc32)cc1 equal to or greater than 40%?
y

***
Decide: is the reported value of inhibition for NC(=S)N=Nc1c(O)n(Cc2ccc(Br)cc2)c2ccccc12 equal to or greater than 40%?
n

Decide: is the reported value of inhibition for Cc1ccccc1Nc1nc(N)nc(CCl)n1 equal to or greater than 40%?
n

====

The entries below come with measured inhibition values attached.
Assay: TNF-a-driven NF-kB reporter inhibitors, primary screen, selectivity assay for NOD1/NOD2 signaling inhibitor project, cell-based, HEK293T NF-kB-Luc, luminescence (AID 1852)
Conditions: TNF-a induced, 14 h, at 4 µM, active compounds read high
Hit rate of the full screen: of about 2,500 compounds, about 1,100 (44%) were called active. So high a share suggests a set chosen from earlier hits. This is one part of the list.
Form entry: value (%) — number only.

Short answer for CC(=O)O[C@]1(C(C)=O)CC[C@H]2[C@@H]3C=CC4=CC(=O)C=C[C@]4(C)[C@H]3CC[C@@]21C : inhibition was 32.7

Short answer for O=C(/C=C/c1ccncc1)c1ccc2c(c1)OCCO2 : inhibition was -1.4

Short answer for COc1cc(OC)c(OC)cc1/C=C1\CCC/C(=C\c2cc(OC)c(OC)cc2OC)C1=O : inhibition was 41.8

Short answer for COc1cc(/C=C2\CCC/C(=C\c3ccc(O)c(OC)c3)C2=O)ccc1O : inhibition was 9.3

Short answer for Cc1ccc(NC(=O)CSc2nn(-c3ccccc3)c(=S)s2)cc1S(=O)(=O)N(C)C : inhibition was 72.3

***
Short answer for O=C(CN1CCc2cc3c(cc2C1)OCCCO3)Nc1c(F)cccc1F : inhibition was -3.8

Short answer for O=C(CSc1ncnc2c1oc1ccccc12)N1CCCc2ccccc21 : inhibition was 18.1

Short answer for O=C(CN1C(=O)c2ccccc2S1(=O)=O)c1ccc2c(c1)OCCCO2 : inhibition was 95.7

Short answer for CN(C)S(=O)(=O)c1cc(NC(=O)CSc2nn(-c3ccc(Cl)cc3)c(=S)s2)ccc1Cl : inhibition was -20.5

Short answer for Cc1oc2c(c1C(=O)c1ccccc1)C(=O)C(=O)c1ccccc1-2 : inhibition was 104

====

Experiment: TNF-a-driven NF-kB reporter inhibitors, primary screen, selectivity assay for NOD1/NOD2 signaling inhibitor project, cell-based, HEK293T NF-kB-Luc, luminescence (AID 1852)
Details: TNF-a induced, 14 h, at 4 µM, active compounds read high
Screen size: about 2,500 compounds; about 1,100 (44%) were called active. The set was probably picked from earlier hits. This is one part of the list.
Label scheme for inhibition: lower than 70% is criterion not met, 70% and above is criterion met.

Decide: is the reported value of inhibition for O=C(Cn1ncc(Cl)c(Cl)c1=O)N1CCc2ccccc21 equal to or greater than 70%?
criterion met

Decide: is the reported value of inhibition for Cc1cc(/C=N/Nc2ncnc(N)c2[N+](=O)[O-])c(C)n1-c1ccccc1 equal to or greater than 70%?
criterion not met

Decide: is the reported value of inhibition for COCCCN(C(=O)Cc1ccc(Cl)c(Cl)c1)c1c(N)n(Cc2ccccc2)c(=O)[nH]c1=O equal to or greater than 70%?
criterion not met

Consider the record given below.
Decide: is the reported value of inhibition for Cc1ccc(NC(=O)COc2ccc(/C=C3/SC(=Nc4ccccc4)N(Cc4cccnc4)C3=O)cc2)cc1 equal to or greater than 70%?
criterion not met

====

Assay: TNF-a-driven NF-kB reporter inhibitors, primary screen, selectivity assay for NOD1/NOD2 signaling inhibitor project, cell-based, HEK293T NF-kB-Luc, luminescence (AID 1852)
Details: TNF-a induced, 14 h, at 4 µM
About 1,100 (44%) of roughly 2,500 compounds were called active.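 How the source made its calls: active means inhibition above 50% at 4 µM in the single-point screen; inactive means inhibition of 50% or less.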 The set was probably picked from earlier hits. The list shows a part of the results.
Outcome (select one): T for active, F for inactive

Use these answered entries as a reference point.
What did this assay record as the result for COc1cccc2sc(Nc3nc(-c4ccccn4)cs3)nc12 ?
T

What did this assay record as the result for CCN(Cc1ccccc1)S(=O)(=O)c1ccc(C(=O)Nc2nnc(C3CC3)o2)cc1 ?
T

What did this assay record as the result for Cc1ccc(Cc2cnc(N3C(=N)SC(C)C3=O)s2)cc1 (centres undefined) ?
T

What did this assay record as the result for O=C(CN(Cc1ccccc1)S(=O)(=O)c1ccc2c(c1)OCCO2)Nc1ccc2c(c1)OCCO2 ?
F

***
What did this assay record as the result for O=C(N/N=C/c1cn(-c2ccccc2)nc1-c1cc2ccccc2o1)c1c[nH]c2ccccc12 ?
F

What did this assay record as the result for N#CC(c1ccccc1)c1ccc2c(C(F)(F)F)cc(C(F)(F)F)nc2n1 (centres undefined) ?
F

What did this assay record as the result for O=C(Nc1nc2cc3c(cc2s1)OCCO3)C1=COCCO1 ?
F

What did this assay record as the result for COc1ccc(N2CCN(S(=O)(=O)c3ccc4c(c3)NC(=O)C(C)S4)CC2)cc1 (centres undefined) ?
F

What did this assay record as the result for Cc1cccc(CN2CCN(C(=O)CCl)CC2)c1 ?
F

What did this assay record as the result for Cc1cc(=O)n(C)c(=O)n1CCCCOc1ccc([N+](=O)[O-])cc1 ?
F

What did this assay record as the result for O=C(Nc1ccc(Oc2cccnc2)cc1)C1CCN(Cc2cc(Cl)ccc2O)CC1 ?
F

What did this assay record as the result for O=C(OCC(=O)N1CCOCC1)c1ccccc1Br ?
F

What did this assay record as the result for Cc1ccc(OCCCCn2cnc3ccccc32)cc1 ?
F

What did this assay record as the result for CCOC(=O)c1cnn(Cc2cccc(Cl)c2)c1C ?
F

What did this assay record as the result for COc1cc2ncnc(NCCc3ccccc3)c2cc1OC ?
F

What did this assay record as the result for CC(=O)N1CC(C)Sc2ccc(S(=O)(=O)NCc3ccc(Cl)cc3)cc21 (centres undefined) ?
F

What did this assay record as the result for COc1ccccc1NS(=O)(=O)c1cccc(NC(=O)Nc2ccc(Cl)cc2)c1 ?
F

What did this assay record as the result for COc1ccc(OC)c(Nc2c3ccccc3nc3ccccc23)c1 ?
F

What did this assay record as the result for COc1ccc(CCNc2ncnc3cc(OC)c(OC)cc23)cc1OC ?
T

What did this assay record as the result for Cc1ccccc1N(Cc1cc(=O)[nH]c2ccccc12)C(=O)CCl ?
T

What did this assay record as the result for CCCCN(CC)S(=O)(=O)c1ccc(C(=O)Nc2nnc(-c3cccs3)o2)cc1 ?
T

What did this assay record as the result for COc1ccccc1CNC(=O)C1CCN(C(=O)[C@@H]2Cc3ccccc3CN2)CC1 ?
F

What did this assay record as the result for CCCCN(C)S(=O)(=O)c1ccc(C(=O)Nc2nnc(-c3cccs3)o2)cc1 ?
T

What did this assay record as the result for Cc1cc(C)cc(NC(=O)/C=C/c2ccc([N+](=O)[O-])s2)c1 ?
F
